Biological target: recombinant hTREX1(1-242)WT (hT1) (Homo sapiens, UniProt Q9NSU2)
Construct: recombinant hTREX1(1-242)^WT
Sequence (Q9NSU2 1-242): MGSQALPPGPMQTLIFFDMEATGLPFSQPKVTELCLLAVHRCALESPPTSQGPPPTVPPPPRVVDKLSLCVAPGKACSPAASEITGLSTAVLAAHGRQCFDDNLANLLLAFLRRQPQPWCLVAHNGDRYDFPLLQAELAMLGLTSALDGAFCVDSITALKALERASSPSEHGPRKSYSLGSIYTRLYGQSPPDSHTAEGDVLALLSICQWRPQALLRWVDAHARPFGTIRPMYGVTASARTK
Assay: fluorescence-based exonuclease assay, hTREX1 IC50 and HTS
Type: biochemical
Settings: experiment 2; read-out: IC50 #2
Measured IC50 values are reported for all entries that follow.

Below, each entry is followed by its recorded IC50 result.
| molecule | IC50 |
| --- | --- |
| N#Cc1c(O)nc(SCC(=O)N2c3ccccc3Sc3ccccc32)nc1-c1ccccc1 | 8.5 µM |
| O=C1c2ccccc2C(=O)c2c1cc(S(=O)(=O)O)c(O)c2O | 1.1 µM |
| O=c1c2cnc3nc(-c4ccc(Cl)cc4)nn3c2ccn1Cc1cccnc1 | 14.6 µM |
| Cc1ccc(-n2c(=O)c3cc4c(=O)n(-c5ccc(C)c(C)c5)c(=O)c4c(C(=O)c4ccc(C(=O)O)cc4)c3c2=O)cc1C | 8.5 µM |
| Cc1ccc2nc(N3C(=O)C(=O)C(=C(O)c4ccc5c(c4)C[C@H](C)O5)[C@@H]3c3cccs3)sc2c1 | 14.9 µM |

Problem: Would you mind telling me what IC50 value was observed for COc1ccc(N2C(=O)c3ccc(Oc4ccc(Oc5ccc(C(=O)O)cc5)cc4)cc3C2=O)cc1 ?
Solution: 3 µM

Problem: Fill in: IC50 of Cc1cc(C)c(S(=O)(=O)Nc2ccc3c(c2)c2c(n3S(=O)(=O)c3cc(C)c(C)cc3C)CCCC2=O)cc1C is ___
Solution: 6.4 µM

Problem: Suppose we examine the molecule CCn1c2ccccc2c2cc([C@H]3Nc4ccccc4NC4=C3C(=O)C[C@@H](c3ccc(OC)cc3)C4)ccc21 ; what IC50 value has been reported?
Solution: 16.2 µM

Problem: Given Cc1cccc(C(=O)Nc2ccc(-c3cc4ccccc4oc3=O)cc2)c1 , state its recorded IC50.
Solution: 7.8 µM

Problem: Entry Cn1c(O)c(N=NC(=O)[C@@H]2COc3cc4ccccc4cc3O2)c2cc(Br)ccc21 has what IC50?
Solution: 7.8 µM

Problem: For the molecule Cc1ccc(N2NC(=O)/C(=C/c3ccc(-c4ccc5c(c4)C(=O)NC5=O)o3)C2=O)cc1C , what IC50 is on record?
Solution: 7.8 µM

The origin of these recorded values is patent US20230278957A1.
